- System: A498
- assay.notes: Anticancer activity against human A498 cells
- Format: functional
Please note: GI50 exactly at 30 nM is 0. Only values below 30 nM get 1.

{"columns": ["compound", "category.label"],
 "data": [
  ["C/C1=C\\[C@H](C)C[C@H](C)OC(=O)C[C@H](c2ccc(O)c(O)c2)NC(=O)[C@@H](Cc2c(Br)[nH]c3ccccc23)N(C)C(=O)[C@H](C)NC(=O)[C@@H](C)C1", 1],
  ["C/C1=C\\[C@H](C)C[C@H](C)OC(=O)C[C@H](c2ccc(O)cc2)NC(=O)[C@@H](Cc2c(Br)[nH]c3cc(Br)ccc23)N(C)C(=O)[C@H](C)NC(=O)[C@@H](C)C1 [JASPLAKINOLIDE R1]", 0],
  ["C/C1=C\\[C@H](C)C[C@H](C)OC(=O)C[C@H](c2ccc(O)cc2)NC(=O)[C@@H](Cc2c[nH]c3ccccc23)N(C)C(=O)[C@H](C)NC(=O)[C@@H](C)C1 [JASPLAKINOLIDE Q]", 0],
  ["CCOC(=O)C[C@@H](NC(=O)[C@@H](Cc1c(Br)[nH]c2ccccc12)N(C)C(=O)[C@H](C)NC(=O)[C@@H](C)C/C(C)=C/[C@H](C)C[C@H](C)O)c1ccc(O)cc1", 0],
  ["C/C1=C\\[C@H](C)C[C@H](C)OC(=O)C[C@H](c2ccc(O)cc2)NC(=O)[C@@H](Cc2c(Br)[nH]c3ccccc23)N(C)C(=O)[C@H](C)NC(=O)CC1 [JASPLAKINOLIDE F]", 0],
  ["CC[C@@H]1NC(=O)[C@@H](C)C/C(C)=C/[C@H](C)C[C@H](C)OC(=O)C[C@H](c2ccc(O)cc2)NC(=O)[C@@H](Cc2c(Br)[nH]c3ccccc23)N(C)C1=O [JASPLAKINOLIDE D]", 1],
  ["C/C1=C\\[C@H](C)C[C@H](C)OC(=O)C[C@H](c2ccc(O)cc2)NC(=O)[C@@H](Cc2c(Br)[nH]c3ccccc23)NC(=O)[C@H](C)NC(=O)[C@@H](C)C1 [JASPLAKINOLIDE M]", 0]
]}
